tested.system: thromboxane-A2 receptor (Homo sapiens, UniProt P21731)
method.summary: inhibition of U-46619-induced aggregation of aspirinated washed human platelets
Assay type: cell-based
Design: U-46619 induced platelet aggregation of aspirinated human washed platelets and in human platelet rich plasma; endogenous in cells; host or cells: human platelets (aspirinated washed platelets in A1; platelet rich plasma in A2)
condition.parameters: in vitro
reported.endpoint: IC50 (µM)

{"compound": "O=C(O)CCC=CCCC1C(OCc2ccc(-c3ccccc3)cc2)COC1c1cccnc1 (centres unmarked) [Example 8(a)]", "IC50 / µM": 0.028}
{"compound": "O=C(O)CC/C=C\\CC[C@@H]1[C@@H](OCc2ccc(-c3ccccc3)cc2)CO[C@@H]1c1cccnc1 [Example 1]", "IC50 / µM": 0.0265}

###

tested.system: thromboxane-A2 receptor (Homo sapiens)
Sequence (P21731 1-343): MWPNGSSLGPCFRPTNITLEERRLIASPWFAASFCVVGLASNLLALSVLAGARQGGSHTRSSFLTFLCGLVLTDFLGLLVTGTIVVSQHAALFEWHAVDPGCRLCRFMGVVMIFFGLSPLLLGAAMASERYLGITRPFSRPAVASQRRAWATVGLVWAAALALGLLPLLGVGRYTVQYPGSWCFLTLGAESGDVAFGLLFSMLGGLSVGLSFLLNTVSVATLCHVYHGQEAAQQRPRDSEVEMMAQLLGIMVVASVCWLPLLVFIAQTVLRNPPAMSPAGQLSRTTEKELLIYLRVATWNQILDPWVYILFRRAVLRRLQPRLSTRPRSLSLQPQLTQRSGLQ
method.summary: inhibition of U-46619 induced aggregation in human platelet rich plasma
Type: cell-based
condition.parameters: in vitro
reported.endpoint: IC50 (µM)
Reply numerically in µM, unit not repeated.

Req: Name the recorded IC50 for O=C(O)CC/C=C\CC[C@@H]1[C@@H](OCc2ccc(-c3ccccc3)cc2)CO[C@@H]1c1cccnc1 [Example 1] .
Resp: 0.25
